condition: buffer; pH 7.4; 200.0 µM
Overview of recorded solubility kinetic for various compounds

Example entries and their recorded answers appear below.
{"compound": "COC(=O)/C(C#N)=C/c1ccc(C)o1", "solubility kinetic": "0.0207 mg/mL"}
{"compound": "CN1CCN(CCCNC(=O)Nc2ccc([N+](=O)[O-])cc2)CC1", "solubility kinetic": "0.0448 mg/mL"}
{"compound": "CCCc1c(C)nc(N2CCN(c3cccc(OC)c3)CC2)[nH]c1=O", "solubility kinetic": "0.004 mg/mL"}
{"compound": "CC(C)(C)c1csc(NC(=O)c2ccccc2O)n1", "solubility kinetic": "0.0093 mg/mL"}
{"compound": "C=CC(C)C(C(=O)c1ccccc1)N(C)C (stereo not given)", "solubility kinetic": "0.012 mg/mL"}
{"compound": "O=C(O)CCCC(=O)Nc1ccccc1Oc1ccccc1", "solubility kinetic": "> 0.0449 mg/mL"}
{"compound": "CC(C(=O)Nc1ccccc1)N(C)Cc1cccs1 (stereo not given)", "solubility kinetic": "0.0336 mg/mL"}
{"compound": "COc1ccc(C(=O)Nc2ccc(Nc3ccccc3)cc2)cc1Br", "solubility kinetic": "< 0.0004 mg/mL"}

Consider the additional compound presented here.
Determine its reported solubility kinetic: Cc1nn(C)cc1S(=O)(=O)Nc1cccc(Cl)c1
> 0.0429 mg/mL

----------
condition: buffer; pH 7.4; 200.0 µM
reported_endpoint: solubility kinetic (µg/mL)
Form entry: value (µg/mL) — number only.

Determine its reported solubility kinetic: O=C(Nc1cc([N+](=O)[O-])ccc1O)c1cccc([N+](=O)[O-])c1
37.1

Determine its reported solubility kinetic: COC(=O)CNC(=O)C12CC3CC(C1)CC(c1ccc(C)cc1)(C3)C2
6.5

Determine its reported solubility kinetic: COc1ccc(-c2nc(C)c(C(C)=O)n2O)cc1[N+](=O)[O-]
42.3

Determine its reported solubility kinetic: COc1ccccc1NC(=O)CNC(=O)CC12CC3CC(CC(C3)C1)C2
43.1

Determine its reported solubility kinetic: O=C(CSCCS(=O)(=O)c1ccc(Cl)cc1)Nc1ccccc1
3.5

Determine its reported solubility kinetic: CC1(C)Nc2ccccc2C(=O)N1c1ccc(Br)cc1
12.1

----------
Overview of recorded solubility kinetic for various compounds
condition: buffer; pH 7.4; 200.0 µM
Form entry: value (µg/mL) — number only.

Example entries and their recorded answers appear below.
{"compound": "Cc1cc(C)nc(/N=C(\\NC(=O)C(C)(C)C)Nc2ccccc2)n1", "reported_endpoint": "solubility kinetic", "readout_unit": "µg/mL", "quantitative_result": 1.8}
{"compound": "Cc1ccccc1CN(C)C(=O)COC(=O)c1ccc2[nH]c(C)c(C)c2c1", "reported_endpoint": "solubility kinetic", "readout_unit": "µg/mL", "quantitative_result": 2.1}
{"compound": "O=C1N=C(N2CCCCC2)S/C1=C\\c1ccccc1F", "reported_endpoint": "solubility kinetic", "readout_unit": "µg/mL", "quantitative_result": 4.7}
{"compound": "CC(C)n1c(NCc2ccc(Cl)cc2)nc2ccccc21", "reported_endpoint": "solubility kinetic", "readout_unit": "µg/mL", "quantitative_result": 0.7}
{"compound": "COC(=O)c1ccc(NC(=S)NC(=O)C2CCC2)cc1", "reported_endpoint": "solubility kinetic", "readout_unit": "µg/mL", "quantitative_result": 4.9}

Determine its reported solubility kinetic: O=C(NCC1CCCO1)c1ccc(-c2cccc(C(F)(F)F)c2)o1 (stereo not given)
38.4

Determine its reported solubility kinetic: Cc1ccc(NC(=O)CNC(=O)c2cccc(Cl)c2)nc1
11.7

Determine its reported solubility kinetic: CSc1sc(-c2ccnc(=S)[nH]2)c(-c2ccccc2)c1C#N
8.2

Determine its reported solubility kinetic: O=C(Cn1cc(C(F)(F)F)cc(Cl)c1=O)NCc1ccccc1
7.8

Determine its reported solubility kinetic: COC(=O)c1ccsc1NC(=O)c1cccc(OC)c1
1.4

Determine its reported solubility kinetic: Cn1cccc1C(C#N)(CC#N)c1cccc(F)c1C#N (stereo not given)
40.4

Determine its reported solubility kinetic: CCOC(=O)Cc1csc(NC(=O)c2cccc(Cl)c2)n1
6.9

Determine its reported solubility kinetic: COC(=O)c1cccnc1NC(=S)NC1CCCCC1
0.9

Determine its reported solubility kinetic: Cc1noc(C)c1COC(=O)/C=C/c1ccccc1Cl
6.8

----------
condition: buffer; pH 7.4; 200.0 µM
reported_endpoint: solubility kinetic

Determine its reported solubility kinetic: NS(=O)(=O)c1ccc(Sc2ccc3ccccc3c2)nc1
2.1 µg/mL

Determine its reported solubility kinetic: CC(c1ccccc1)N1CCc2[nH]c(=S)[nH]c(=O)c2C1 (stereo unspecified)
19.9 µg/mL

Determine its reported solubility kinetic: CC(NC(=O)CN(C)CC(=O)Nc1cccc(F)c1)c1ccccc1 (stereo unspecified)
> 51.5 µg/mL

Determine its reported solubility kinetic: O=C(Nc1ccc(C(=O)N2CCCc3ccccc32)cc1)c1cccs1
< 0.4 µg/mL

Determine its reported solubility kinetic: Cc1ccsc1C(=O)OCC(=O)N(Cc1ccccc1)C(C)C
40.2 µg/mL

Determine its reported solubility kinetic: CCC(C(=O)Nc1ccon1)c1ccccc1 (stereo unspecified)
> 34.5 µg/mL

----------
condition: buffer; pH 7.4; 200.0 µM
Decide by solubility kinetic: equal to or exceeding 20 µg/mL means 1 (yes), less means 0 (no).

Use these answered entries as a reference point.
{"compound": "CC1=[N+](C)N(c2ccccc2)C(=O)C1N=C/C=C/c1ccccc1 (centres undefined)", "class_assignment": "1 (yes)"}
{"compound": "O=C(CCNC(=O)c1ccc(Br)cc1)Nc1ccc(S(=O)(=O)N2CCOCC2)cc1", "class_assignment": "0 (no)"}
{"compound": "N#Cc1ccsc1NC(=O)CN1CCOCC1", "class_assignment": "1 (yes)"}
{"compound": "CCOc1cc(N2CCOCC2)c(OCC)cc1NC(=O)COC(=O)c1ccc([N+](=O)[O-])o1", "class_assignment": "1 (yes)"}
{"compound": "COC(=O)CSc1nnc(CCc2ccccc2)n1C", "class_assignment": "1 (yes)"}

# check: solubility kinetic of CC(=O)Nc1ccc(N/C=C/C(=O)c2ccc(Cl)cc2)cc1 is greater than or equal to 20 µg/mL
0 (no)

# check: solubility kinetic of O=C(Cc1ccccc1)Nc1ccccc1C(=O)N1CCCCC1 is greater than or equal to 20 µg/mL
1 (yes)

# check: solubility kinetic of CCCCNC(=O)COC(=O)c1ccc(C)c(NC(=O)c2ccco2)c1 is greater than or equal to 20 µg/mL
0 (no)

# check: solubility kinetic of CCCC(=O)Nc1c(C(=O)OCC)oc2ccccc12 is greater than or equal to 20 µg/mL
1 (yes)

# check: solubility kinetic of Cn1cc(C(=O)C(=O)NC2CCCCC2)c2ccccc21 is greater than or equal to 20 µg/mL
1 (yes)

# check: solubility kinetic of O=C(Cn1ccccc1=O)NCc1ccc(F)cc1 is greater than or equal to 20 µg/mL
1 (yes)

----------
Overview of recorded solubility kinetic for various compounds
condition: buffer; pH 7.4; 200.0 µM
Form entry: value (mg/mL) — number only.

Example entries and their recorded answers appear below.
{"compound": "O=C(NCCNC(=O)c1ccc(Cl)cc1Cl)c1ccccn1", "solubility kinetic, mg/mL": 0.0434}
{"compound": "O=C(CCCCC(=O)Nc1ccccc1)Nc1ccccc1", "solubility kinetic, mg/mL": 0.0031}
{"compound": "O=C(Cc1ccc(Cl)cc1)Nc1cccc2ncccc12", "solubility kinetic, mg/mL": 0.0039}

Determine its reported solubility kinetic: O=S(=O)(NCCc1ccccn1)c1ccc(OC(F)(F)F)cc1
0.0519

Determine its reported solubility kinetic: CC1=NOC(=O)/C1=C\c1ccc2c(c1)OCO2
0.032

Determine its reported solubility kinetic: COc1ccc(COC(=O)C2=C(C)NC(=O)NC2c2ccc(F)cc2)cc1 (stereo not given)
0.003

Determine its reported solubility kinetic: CCOc1ccc(NC(=O)CN2CCc3ccccc3C2)cc1
0.034

Determine its reported solubility kinetic: O=C(O)c1cc(S(=O)(=O)N2CC3CC3C2C(=O)O)c(Cl)cc1Cl (stereo not given)
0.0523

Determine its reported solubility kinetic: O=C(Nc1ccc(C2SCCS2)cc1)c1ccccc1
0.0014

----------
condition: buffer; pH 7.4; 200.0 µM
Overview of recorded solubility kinetic for various compounds
Form entry: value (µg/mL) — number only.

Example entries and their recorded answers appear below.
{"compound": "Cl.O=C1CCC(c2ccccc2)(C2CCN(Cc3ccccc3)CC2)C(=O)N1 (stereo unspecified)", "quantitative_result": 51.4}
{"compound": "Cc1ccc(C(=O)Nc2ccc(C(F)(F)F)n(C)c2=O)cc1", "quantitative_result": 2.1}

Consider the additional compound presented here.
Determine its reported solubility kinetic: Cc1ccc(OCC(=O)NCCNC(=O)c2ccccn2)cc1
46.9

----------
condition: buffer; pH 7.4; 200.0 µM
Overview of recorded solubility kinetic for various compounds
Form entry: value (µg/mL) — number only.

Determine its reported solubility kinetic: CC1(C)CCC(=O)C=C1Nc1ccc(F)c(Cl)c1
38.2

Determine its reported solubility kinetic: S=c1[nH]ccn1CCc1ccccc1
22.7

Determine its reported solubility kinetic: Cc1nc2ccc([N+](=O)[O-])cc2c(=O)n1Cc1ccc([N+](=O)[O-])cc1
2.5

Determine its reported solubility kinetic: CCOC(=O)c1cnc2[nH]c3ccccc3n2c1=O
23
